Data credit: ChEMBL document CHEMBL2311448

Experiment: Cytotoxicity against human Hepatoma cells
Format: cell-based
Readout type: CC50

Compound	Value observed
CCCCCCCCC(=O)CCCCCC/C=C/[C@H](C(=O)N[C@@H](Cc1ccc(OCCC(C)C)cc1)C(=O)O)[C@@](O)(CC(=O)O)C(=O)O	> 50000 nM
CCCCCCCC(=O)CCCCCC/C=C/[C@H](C(=O)NCCc1ccc(OCCC(C)C)cc1)[C@@](O)(CC(=O)O)C(=O)O	> 5000 nM
CCCCCCCC(=O)CCCCCC/C=C/[C@H](C(=O)N[C@@H](Cc1cccs1)C(=O)O)[C@@](O)(CC(=O)O)C(=O)O	> 1000 nM
CCCCCCCC(=O)CCCCCC/C=C/[C@H](C(=O)N[C@@H](Cc1ccc(-c2cccnc2)cc1)C(=O)O)[C@@](O)(CC(=O)O)C(=O)O	> 1000 nM
CCCCCCCCCC(=O)CCCC/C=C/[C@H](C(=O)N[C@@H](Cc1ccc(OCCC(C)C)cc1)C(=O)O)[C@@](O)(CC(=O)O)C(=O)O	> 1000 nM
CCCCCCCC(O)CCCCCC/C=C/[C@H](C(=O)N[C@@H](Cc1ccc(OCCC(C)C)cc1)C(=O)O)[C@@](O)(CC(=O)O)C(=O)O (mixture of isomers)	> 1000 nM
CC(C)CCOc1ccc(C[C@H](NC(=O)[C@@H](/C=C/CCCCCCC(=O)CCC2CCCCC2)[C@@](O)(CC(=O)O)C(=O)O)C(=O)O)cc1	> 1000 nM
CCCCCCCCCCCCCC/C=C/[C@H](C(=O)NC(Cc1ccc(OCC=C(C)C)cc1)C(=O)O)[C@@](O)(CC(=O)O)C(=O)O (stereo partly drawn)	> 50000 nM
CCCCCCCC(=O)CCCCCC/C=C/[C@H](C(=O)N[C@@H](Cc1cccc2ccccc12)C(=O)O)[C@@](O)(CC(=O)O)C(=O)O	> 1000 nM
CC(C)CCOc1ccc(C[C@H](NC(=O)[C@@H](/C=C/CCCCCCC(=O)CCc2ccccc2)[C@@](O)(CC(=O)O)C(=O)O)C(=O)O)cc1	> 1000 nM
CCCCCCCC(=O)CCCCCCCC[C@H](C(=O)N[C@@H](Cc1ccc(OCCC(C)C)cc1)C(=O)O)[C@@](O)(CC(=O)O)C(=O)O	> 5000 nM
CCCCCCCC(=O)CCCCCC/C=C/[C@H](C(=O)N[C@@H](Cc1ccc(OCC=C(C)C)cc1)C(=O)O)[C@@](O)(CC(=O)O)C(=O)O	> 5000 nM
CCCCCCC(=O)CCCCCC/C=C/[C@H](C(=O)N[C@@H](Cc1ccc(OCCC(C)C)cc1)C(=O)O)[C@@](O)(CC(=O)O)C(=O)O	> 1000 nM
